These entries and their values trace back to the supplement of paper PMC11502859.

System: HEK293T
Test: median enrichment of reporter reads in eGFP-reduced (low/intermediate) vs eGFP-high sorted cells (eGFP-extension fusion abundance) (ratio); higher = stronger loss of eGFP-fusion protein abundance (more destabilising extension)
// map median enrichment onto a label; ranges lower = under 2, middle = from 2 up to 7, upper = 7 and over

- SUBSTANCE: "YQHWPSVFLGGTSQEPLPALLESQRGQEAVAGASTQLG [GDF5]"
  TEST_TARGET: "HEK293T"
  CAT: "lower"
- SUBSTANCE: "SETEASLFHSPS [EPB41L4B]"
  TEST_TARGET: "HEK293T"
  CAT: "lower"
- SUBSTANCE: "CGACYGLNCAPK [ZNF81]"
  TEST_TARGET: "HEK293T"
  CAT: "lower"
- SUBSTANCE: "QCLWPSILISLMRILLALLSLVGICQAQCFNLKLILCFRCQSRYQQPFDPTTALYILVEDFHPCAWKRCSWYIVKK [TCEAL3]"
  TEST_TARGET: "HEK293T"
  CAT: "upper"
- SUBSTANCE: "CITKCLYCLK [EFCAB1]"
  TEST_TARGET: "HEK293T"
  CAT: "upper"
- SUBSTANCE: "LKKKKKKALAFSCLFC [PCDH17]"
  TEST_TARGET: "HEK293T"
  CAT: "upper"
- SUBSTANCE: "CRVSLWPLSGIPGGRGGEGGTHIVNS [BDH1]"
  TEST_TARGET: "HEK293T"
  CAT: "middle"
- SUBSTANCE: "SGEMCVTINSKMGKPPSPCI [AK3]"
  TEST_TARGET: "HEK293T"
  CAT: "lower"

QUERY: Pick a category. Item: SCRVFSSFFLLQEFVVT [MMP16]
RESULT: middle

QUERY: Pick a category. Item: EILSLAAICKGS [TET2]
RESULT: upper

QUERY: Pick a category. Item: KIWLFMHCGMCSSFSVFRYKVLYQSVIYKVYQHKCW [MLH1]
RESULT: middle

* * *

System: HEK293T;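 also: lentiviral eGFP-IRES-mCherry reporter pool sorted by FACS 96 h post-transduction, gated on mCherry-high cells, Illumina read counts normalized per million, median across four biological replicates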
Experiment: median enrichment of reporter reads in eGFP-reduced (low/intermediate) vs eGFP-high sorted cells (eGFP-extension fusion abundance) (ratio); higher = stronger loss of eGFP-fusion protein abundance (more destabilising extension)
ASSAY_READOUT: median enrichment
Numbers only.

- RECORD_SEQUENCE: "SGTRKEID [PCDHB16]"
  ASSAY_READOUT: "median enrichment"
  RESULT_NUMBER: 0.57
- RECORD_SEQUENCE: "YPLRDSRCYLSSVPHFL [SYT9]"
  ASSAY_READOUT: "median enrichment"
  RESULT_NUMBER: 12
- RECORD_SEQUENCE: "EFIFKRFSECAQNTWLK [TRMT10C]"
  ASSAY_READOUT: "median enrichment"
  RESULT_NUMBER: 5.59
- RECORD_SEQUENCE: "LAAHPASSHVVWEQRDSHLRGGV [RASAL3]"
  ASSAY_READOUT: "median enrichment"
  RESULT_NUMBER: 2.07
- RECORD_SEQUENCE: "TAPALELGARAAELVFGPQRRIQNQKLKSDVRWAPAPSAESRQGEAGWSQAPSHAAPKSWTHLWGAPHLHLRPHISPLPFLYV [MYO9B]"
  ASSAY_READOUT: "median enrichment"
  RESULT_NUMBER: 5.92
- RECORD_SEQUENCE: "QLDHDLVQ [TRAT1]"
  ASSAY_READOUT: "median enrichment"
  RESULT_NUMBER: 0.266

In the following, a different sequence is considered.
QUERY: For the record LSPLRNIINCRL [DKK2] , what value of median enrichment is listed for HEK293T?
RESULT: 8.81
